Target: T1, recombinant C-terminally His-tagged human CD47 (extracellular domain) (human, UniProt Q08722 19-141)
T1 construct: also called recombinantly expressed human CD47 extracellular domain
T1 sequence (Q08722 19-141): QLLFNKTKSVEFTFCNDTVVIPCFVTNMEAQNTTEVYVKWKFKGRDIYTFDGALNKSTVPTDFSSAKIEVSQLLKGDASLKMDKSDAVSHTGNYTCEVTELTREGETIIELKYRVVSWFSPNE
Experiment: SPR, Biacore X100; antibody captured by anti-human Fc on a CM5 chip, CD47 extracellular domain as analyte, 1:1 fit
Would you mind telling me the reported kon of each entry?
Reply with just the number (in M⁻¹ s⁻¹).

I have this binder here, 2D6-016 (antibody, IgG4, V domains shown, hIgG4 (humanized IgG4); only the variable domains are tied to the construct; also called VH4/VL4) VH: QVQLVESGGGLVQPGGSLRLSCAASGYTFPSYDINWVRQAPGKGLEWVGWIYPRDGSPKYNEKFKGRFTISADTSKNTAYLQMNSLRAEDTAVYYCARSVYYGTQFAYWGQGTLVTVSS VL: DIVMTQSPSSLSASVGDRVTITCKSSQSLLNSRTRKNYLAWYQQKPGKAPKLLIYWASTRDSGVPDRFSGSGSGTDFTLTISSLQPEDFATYYCKQSFNLVTFGQGTKVEIK , and I need its recorded kon.
1.8e+06

How about 2D6-015 (antibody, IgG4, V domains shown, hIgG4 (humanized IgG4); only the variable domains are tied to the construct; also called VH4/VL3) VH: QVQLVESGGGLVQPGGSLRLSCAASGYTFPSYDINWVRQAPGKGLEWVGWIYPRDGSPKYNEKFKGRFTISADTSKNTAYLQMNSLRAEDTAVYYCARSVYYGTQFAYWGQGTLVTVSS VL: DIQMTQSPSSLSASVGDRVTITCKSSQSLLNSRTRKNYLAWYQQKPGKAPKLLIYWASTRDSGVPSRFSGSGSGTDFTLTISSLQPEDFATYYCKQSFNLVTFGQGTKVEIK ?
710000

How about 2D6-066 (antibody, IgG1, V domains shown, hIgG1 (humanized IgG1); only the variable domains are tied to the construct; also called VH2.4/VL2) VH: QVELVQSGPEVKKPGSSVKVSCKASGYTFPSYDINWVRQRPGQGLEWMGWIIPRDGSPKYNEKFKGRVTITADTSTSTAYMELHSLRSEDTAVYYCARSVYYGTQFAYWGQGTLVTVSA VL: DIVMTQSPSSLAVSLGERVTMSCKSSQSLLNSRTRKNYLAWYQQKPGQPPKLLIYWASTRDSGVPDRFSGSGSGTDFTLTISSLQAEDVAVYYCKQSFNLVTFGGGTKLEIK ?
250000

How about 2D6-005 (antibody, IgG4, V domains shown, hIgG4 (humanized IgG4), human kappa constant light chain from vector; only the variable domains are tied to the construct; also called VH2/VL1) VH: QVELVQSGPEVKKPGSSVKVSCKASGYTFPSYDINWVRQRPGQGLEWMGWIYPRDGSPKYNEKFKGRVTITADTSTSTAYMELHSLRSEDTAVYYCARSVYYGTQFAYWGQGTLVTVSA VL: DIVLTQSPSSLSASVGDRVTMSCKSSQSLLNSRTRKNYLAWYQQKPGKAPKLLIYWASTRDSGVPSRFSGSGSGTDFTLTISSLQPEDIATYYCKQSFNLVTFGGGTKLEIK ?
760000

How about 2D6-067 (antibody, IgG1, V domains shown, hIgG1 (humanized IgG1); only the variable domains are tied to the construct; also called VH2.5/VL2) VH: QVELVQSGPEVKKPGSSVKVSCKASGYTFPSYDINWVRQRPGQGLEWMGWIYPRFGSPKYNEKFKGRVTITADTSTSTAYMELHSLRSEDTAVYYCARSVYYGTQFAYWGQGTLVTVSA VL: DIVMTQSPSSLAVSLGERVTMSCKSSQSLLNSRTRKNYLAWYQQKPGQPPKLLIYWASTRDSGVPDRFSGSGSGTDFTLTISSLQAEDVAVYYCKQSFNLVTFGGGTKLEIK ?
720000

How about 2D6-076 (antibody, IgG1, V domains shown, hIgG1 (humanized IgG1); only the variable domains are tied to the construct; also called VH2/VL2.7) VH: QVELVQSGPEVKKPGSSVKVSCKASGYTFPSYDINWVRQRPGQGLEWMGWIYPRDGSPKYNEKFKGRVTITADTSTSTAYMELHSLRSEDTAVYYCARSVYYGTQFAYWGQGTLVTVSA VL: DIVLTQSPSSLAVSLGERVTMSCKSSQSLLNSRTRKNYLAWYQQKPGQPPKLLIYWASTRDSGVPDRFSGSGSGTDFTLTISSLQAEDVAVYYCQQSFNLVTFGGGTKLEIK ?
490000
